Origin of values: the RNAGym collection of RNA variant scans (doi:10.1093/molbev/msab373)

Record form. Attribute: reverse-splicing fitness. Fill in for each entry.
B1: Azoarcus group I ribozyme (parent)
chain: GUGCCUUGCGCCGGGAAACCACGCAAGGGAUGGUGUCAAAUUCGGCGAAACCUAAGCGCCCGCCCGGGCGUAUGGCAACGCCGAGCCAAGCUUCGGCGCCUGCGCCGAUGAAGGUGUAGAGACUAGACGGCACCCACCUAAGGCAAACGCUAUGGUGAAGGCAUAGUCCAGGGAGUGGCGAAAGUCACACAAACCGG

variants of: B1; test: reverse-splicing fitness (ratio to wild type); higher = more active; in vitro selection; Mg2+ level not given
Write the value as a bare number.

Prompt: What reverse-splicing fitness value was documented for this variant, A111C A120C A145U C150A U176A ?
Completion: 0.0359

Prompt: What reverse-splicing fitness value was documented for this variant, C82A A111G A120U C150A ?
Completion: 0.00855

Prompt: What reverse-splicing fitness value was documented for this variant, C82A A111C A120G C150U U176C ?
Completion: 0.02

Prompt: What reverse-splicing fitness value was documented for this variant, C82U A111C A120G C150A C169U U176A ?
Completion: 0.0192

Prompt: What reverse-splicing fitness value was documented for this variant, C82G A111C A120G A145C C169G U176A ?
Completion: 0.0233

Prompt: What reverse-splicing fitness value was documented for this variant, C82G A111U A145G C150U C169A U176A ?
Completion: 0.0163

Prompt: What reverse-splicing fitness value was documented for this variant, A145U C169U U176A ?
Completion: 0.109

Prompt: What reverse-splicing fitness value was documented for this variant, C82G A111C A145U C150G ?
Completion: 0.0245

Prompt: What reverse-splicing fitness value was documented for this variant, A111U A120C C150A C169G U176C ?
Completion: 0.0197

Prompt: What reverse-splicing fitness value was documented for this variant, C82U A111U A145U C150A C169U U176C ?
Completion: 0.0118

Prompt: What reverse-splicing fitness value was documented for this variant, C82U A111G A145U C169U U176G ?
Completion: 0.00468
